assay: Ratio of drug level in brain to plasma in african green monkey at 2 mg/kg, iv after 30 mins; details: chlorocebus aethiops, brain and plasma
# Kp at 0.5 h per entry
Enter the number alone.

Here is how some compounds turned out for Kp at 0.5 h.
**Query** Reported Kp at 0.5 h for COC(=O)c1c(Cl)cccc1-c1ccc([C@@H](C)NC(=O)C2(NC(=O)C(F)(F)F)CC2)c(F)c1 : what is it?
**Result** 0.4

**Query** Reported Kp at 0.5 h for CCOC(=O)c1c(Cl)cccc1-c1cnc([C@@H](C)NC(=O)C2(NC(=O)C(F)(F)F)CC2)c(F)c1 : what is it?
**Result** 0.7

We next turn to a different compound, shown below.
**Query** Reported Kp at 0.5 h for COC(=O)c1c(Cl)cc(Cl)cc1-c1cnc([C@@H](C)NC(=O)C2(NC(=O)C(F)(F)F)CC2)c(F)c1 : what is it?
**Result** 0.8

###

test: Ratio of drug level in brain to plasma in african green monkey at 2 mg/kg, iv after 30 mins; settings: chlorocebus aethiops, brain
recorded.endpoint: Kp at 0.5 h
Enter the number alone.

**Query** Reported Kp at 0.5 h for COC(=O)c1c(Cl)cc(Cl)cc1-c1ccc([C@@H](C)NC(=O)C2(NC(=O)C(F)(F)F)CC2)c(F)c1 : what is it?
**Result** 1.1

###

# bioavailability per entry
assay: in vivo; conditions: mongrel, dog, po, 3 mg/kg
Response body: numeric value in %, unit text excluded.

**Query** Reported bioavailability for COC(=O)c1c(Cl)cc(Cl)cc1-c1cnc([C@@H](C)NC(=O)C2(NC(=O)C(F)(F)F)CC2)c(F)c1 : what is it?
**Result** 66

**Query** Reported bioavailability for COC(=O)c1c(Cl)cc(Cl)cc1-c1ccc([C@@H](C)NC(=O)C2(NC(=O)C(F)(F)F)CC2)c(F)c1 : what is it?
**Result** 19

We next turn to a different compound, shown below.
**Query** Reported bioavailability for CCOC(=O)c1c(Cl)cccc1-c1cnc([C@@H](C)NC(=O)C2(NC(=O)C(F)(F)F)CC2)c(F)c1 : what is it?
**Result** 20

###

molecular target: UniProtKB P46663
recorded.endpoint: pKi
Value format note: pKi is -log10 of concentration (mol/L); just state the number.

Here is how some compounds turned out for pKi.
**Query** // lookup pKi | system=UniProtKB P46663 | key= COC(=O)c1c(F)cc(Cl)cc1-c1ccc([C@@H](C)NC(=O)C2(NC(=O)C(F)(F)F)CC2)c(F)c1
**Result** 9.17

**Query** // lookup pKi | system=UniProtKB P46663 | key= C[C@@H](NC(=O)C1(NC(=O)C(F)(F)F)CC1)c1ccc(-c2cc(Cl)cc(F)c2-c2nnn(C)n2)cc1F
**Result** 8.96

Continuing:
**Query** // lookup pKi | system=UniProtKB P46663 | key= CCOC(=O)c1c(Cl)cc(Cl)cc1-c1cnc([C@@H](C)NC(=O)C2(NC(=O)C(F)(F)F)CC2)c(F)c1
**Result** 8.74

###

Biological target: B1 bradykinin receptor (Homo sapiens, UniProt P46663)
Sequence (P46663 whole entry): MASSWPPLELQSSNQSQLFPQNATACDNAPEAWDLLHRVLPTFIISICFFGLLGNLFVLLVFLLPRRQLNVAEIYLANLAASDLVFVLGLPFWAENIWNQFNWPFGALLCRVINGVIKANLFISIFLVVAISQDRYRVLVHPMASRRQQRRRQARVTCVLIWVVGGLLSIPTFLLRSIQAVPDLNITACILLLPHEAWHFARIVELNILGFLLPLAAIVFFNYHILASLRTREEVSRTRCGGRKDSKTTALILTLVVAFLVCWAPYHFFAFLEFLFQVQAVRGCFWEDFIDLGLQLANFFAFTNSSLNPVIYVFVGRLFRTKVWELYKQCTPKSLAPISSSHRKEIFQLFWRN
# pKi per entry
Value format note: pKi is -log10 of concentration (mol/L); just state the number.

Here is how some molecules turned out for pKi.
**Query** Reported pKi for Cc1nc(-c2c(Cl)cc(Cl)cc2-c2ccc([C@@H](C)NC(=O)C3(NC(=O)C(F)(F)F)CC3)c(F)c2)no1 : what is it?
**Result** 8.62

**Query** Reported pKi for CCOC(=O)c1c(Cl)cc(Cl)cc1-c1ccc([C@@H](C)NC(=O)C2(NC(=O)C(F)(F)F)CC2)c(F)c1 : what is it?
**Result** 8.73

**Query** Reported pKi for Cc1nc(-c2ccc(Cl)cc2-c2ccc([C@@H](C)NC(=O)C3(NC(=O)C(F)(F)F)CC3)c(F)c2)no1 : what is it?
**Result** 8.86

Continuing:
**Query** Reported pKi for CCOC(=O)c1c(Cl)cccc1-c1cnc([C@@H](C)NC(=O)C2(NC(=O)C(F)(F)F)CC2)c(F)c1 : what is it?
**Result** 8.92

**Query** Reported pKi for Cc1noc(-c2ccc(Cl)cc2-c2ccc([C@@H](C)NC(=O)C3(NC(=O)C(F)(F)F)CC3)c(F)c2)n1 : what is it?
**Result** 8.12

###

assay: Half life in mongrel dog at 3 mg/kg, po or 1 mg/kg, iv; settings: in vivo
recorded.endpoint: half-life (h)
Response body: numeric value in h, unit text excluded.

**Query** Reported half-life for CCOC(=O)c1c(Cl)cccc1-c1cnc([C@@H](C)NC(=O)C2(NC(=O)C(F)(F)F)CC2)c(F)c1 : what is it?
**Result** 2.3

We next turn to a different molecule, shown below.
**Query** Reported half-life for COC(=O)c1c(Cl)cc(Cl)cc1-c1cnc([C@@H](C)NC(=O)C2(NC(=O)C(F)(F)F)CC2)c(F)c1 : what is it?
**Result** 6.6

###

experiment: in vivo; details: rhesus monkey, po, 3 mg/kg
recorded.endpoint: bioavailability (%)
Response body: numeric value in %, unit text excluded.

Here is how some molecules turned out for bioavailability.
**Query** Reported bioavailability for COC(=O)c1c(Cl)cc(Cl)cc1-c1ccc([C@@H](C)NC(=O)C2(NC(=O)C(F)(F)F)CC2)c(F)c1 : what is it?
**Result** 20

**Query** Reported bioavailability for COC(=O)c1c(Cl)cc(Cl)cc1-c1cnc([C@@H](C)NC(=O)C2(NC(=O)C(F)(F)F)CC2)c(F)c1 : what is it?
**Result** 12

We next turn to a different molecule, shown below.
**Query** Reported bioavailability for CCOC(=O)c1c(Cl)cccc1-c1cnc([C@@H](C)NC(=O)C2(NC(=O)C(F)(F)F)CC2)c(F)c1 : what is it?
**Result** 12

###

# half-life per entry
test: Half life in Sprague-Dawley rat at 10 mg/kg, po or 2 mg/kg, iv; details: in vivo
Response body: numeric value in h, unit text excluded.

Here is how some compounds turned out for half-life.
**Query** Reported half-life for COC(=O)c1c(Cl)cc(Cl)cc1-c1cnc([C@@H](C)NC(=O)C2(NC(=O)C(F)(F)F)CC2)c(F)c1 : what is it?
**Result** 1.3

**Query** Reported half-life for CCOC(=O)c1c(Cl)cccc1-c1cnc([C@@H](C)NC(=O)C2(NC(=O)C(F)(F)F)CC2)c(F)c1 : what is it?
**Result** 0.8

**Query** Reported half-life for COC(=O)c1c(F)cc(Cl)cc1-c1ccc([C@@H](C)NC(=O)C2(NC(=O)C(F)(F)F)CC2)c(F)c1 : what is it?
**Result** 0.8

**Query** Reported half-life for COC(=O)c1c(Cl)cc(Cl)cc1-c1ccc([C@@H](C)NC(=O)C2(NC(=O)C(F)(F)F)CC2)c(F)c1 : what is it?
**Result** 4.6

**Query** Reported half-life for Cc1nc(-c2c(Cl)cc(Cl)cc2-c2ccc([C@@H](C)NC(=O)C3(NC(=O)C(F)(F)F)CC3)c(F)c2)no1 : what is it?
**Result** 5.6

We next turn to a different compound, shown below.
**Query** Reported half-life for C[C@@H](NC(=O)C1(NC(=O)C(F)(F)F)CC1)c1ccc(-c2cc(Cl)cc(F)c2-c2nnn(C)n2)cc1F : what is it?
**Result** 3.5

###

assay: in vivo; conditions: Sprague-Dawley, rat, po, 10 mg/kg
Description: Oral bioavailability in Sprague-Dawley rat at 10 mg/kg, po
Hi, to clarify the labels: satisfied covers bioavailability from 40% upward, not satisfied covers anything below 40%.

Take a look at these entries with their results.
**Query** Kindly determine if bioavailability recorded for COC(=O)c1c(Cl)cc(Cl)cc1-c1cnc([C@@H](C)NC(=O)C2(NC(=O)C(F)(F)F)CC2)c(F)c1 is above or exactly 40%.
**Result** not satisfied

**Query** Kindly determine if bioavailability recorded for COC(=O)c1c(F)cc(Cl)cc1-c1ccc([C@@H](C)NC(=O)C2(NC(=O)C(F)(F)F)CC2)c(F)c1 is above or exactly 40%.
**Result** not satisfied

**Query** Kindly determine if bioavailability recorded for C[C@@H](NC(=O)C1(NC(=O)C(F)(F)F)CC1)c1ccc(-c2cc(Cl)cc(F)c2-c2nnn(C)n2)cc1F is above or exactly 40%.
**Result** satisfied

**Query** Kindly determine if bioavailability recorded for COC(=O)c1c(Cl)cc(Cl)cc1-c1ccc([C@@H](C)NC(=O)C2(NC(=O)C(F)(F)F)CC2)c(F)c1 is above or exactly 40%.
**Result** not satisfied

Query compound follows.
**Query** Kindly determine if bioavailability recorded for CCOC(=O)c1c(Cl)cccc1-c1cnc([C@@H](C)NC(=O)C2(NC(=O)C(F)(F)F)CC2)c(F)c1 is above or exactly 40%.
**Result** satisfied
